reported property: melting point

{"columns": ["compound", "reported property", "assay result"],
 "data": [
  ["CC(C)(C)OC(=O)N[C@H]1C[C@@H]1c1ccc(C(=O)C(C)(C)NC(=O)c2c(F)cccc2F)cc1 (racemic)", "melting point", "197 to 198 °C"],
  ["CC(C)(NC(=O)c1c(F)cccc1F)C(=O)c1ccc([C@H]2C[C@@H]2C(F)(F)F)cc1 (racemic)", "melting point", "65 to 82 °C"],
  ["CC(C)(NC(=O)c1c(F)cccc1F)C(=O)c1ccc([C@H]2C[C@@H]2C(=O)O)cc1 (racemic)", "melting point", "115 to 116 °C"],
  ["CC(C)(NC(=O)c1c(F)cccc1F)C(=O)c1ccc(C2CC2)cc1", "melting point", "121 to 123 °C"]
]}
